# Tested on: U-87 MG
# EXPERIMENTAL PROTOCOL: Cytotoxicity against human U-87 MG cells assessed as reduction in cell growth measured for 48 hrs by MTT assay
# Assay type: functional, cell-based, U-87MG ATCC
MEASURED PARAMETER: IC50 (µM)
# output: bare number, implied unit µM

Measured IC50 of `c1ccc2c(c1)[nH]c1c2cc[n+]2cc3c(cc12)CCCC3` : 4.71

---

# Tested on: U-251
# EXPERIMENTAL PROTOCOL: Antiproliferative activity against human U-251MG cells assessed as reduction in cell viability incubated for 48 hrs by SRB assay
# Type: functional, cell-based
# CONDITION CONTEXT: U-251, 48 h
MEASURED PARAMETER: IC50 (µM)
I only need the number, in µM, no unit after it.

Reported IC50 for O[C@H]1[C@H]2c3cc4c(cc3CN3CCC(=C[C@@H]1O)[C@H]23)OCO4 [LYCORINE] was 10

Source listed as ChEMBL document CHEMBL6115010.
